- EXPERIMENTAL_DETAILS: Multiple-dose trial, plasma pharmacokinetics
- Type: in vivo, human
- TEST_PARAMETERS: both sexes, human, plasma, 100 mg qd oral after breakfast, Day 15, steady state, read-out: Cmin
PROPERTY_LABEL: concentration at 15 day (ng/mL)

MOLECULE	DISPLAY_UNIT	NUMERIC_VALUE
CC(C)=CCC[C@](C)(OC1O[C@H](CO)[C@@H](O)[C@H](O)[C@H]1O)[C@H]1CC[C@]2(C)[C@@H]1[C@H](O)C[C@@H]1[C@@]3(C)CC[C@H](O)C(C)(C)[C@@H]3CC[C@]12C (stereo partly shown)	ng/mL	333

====

- EXPERIMENTAL_DETAILS: Single-dose trial, plasma pharmacokinetics
- Type: in vivo, human
- TEST_PARAMETERS: both sexes, human, plasma; single-dose trial, 400 mg oral, fasting; read-out: t1/2 (converted)

COMPOUND	half-life (h)
CC(C)=CCC[C@](C)(OC1O[C@H](CO)[C@@H](O)[C@H](O)[C@H]1O)[C@H]1CC[C@]2(C)[C@@H]1[C@H](O)C[C@@H]1[C@@]3(C)CC[C@H](O)C(C)(C)[C@@H]3CC[C@]12C (stereo partly shown)	22.3

====

- EXPERIMENTAL_DETAILS: Multiple-dose trial, plasma pharmacokinetics
- Format: in vivo, human
- TEST_PARAMETERS: both sexes, human, plasma, po, 200 mg, 200 mg oral after breakfast, Day 1, read-out: Tmax, median (range)
PROPERTY_LABEL: Tmax

COMPOUND	PROPERTY_LABEL	RESULT
CC(C)=CCC[C@](C)(OC1O[C@H](CO)[C@@H](O)[C@H](O)[C@H]1O)[C@H]1CC[C@]2(C)[C@@H]1[C@H](O)C[C@@H]1[C@@]3(C)CC[C@H](O)C(C)(C)[C@@H]3CC[C@]12C (stereo partly shown)	Tmax	3 h

====

- EXPERIMENTAL_DETAILS: Single-dose trial, plasma pharmacokinetics
- Type: in vivo, human
- TEST_PARAMETERS: both sexes, human, plasma; single-dose trial, 600 mg oral, fasting
PROPERTY_LABEL: AUC(0-inf) (ng·h/mL)

COMPOUND	PROPERTY_LABEL	NUMERIC_VALUE
CC(C)=CCC[C@](C)(OC1O[C@H](CO)[C@@H](O)[C@H](O)[C@H]1O)[C@H]1CC[C@]2(C)[C@@H]1[C@H](O)C[C@@H]1[C@@]3(C)CC[C@H](O)C(C)(C)[C@@H]3CC[C@]12C (stereo partly shown)	AUC(0-inf)	9280

====

- EXPERIMENTAL_DETAILS: Multiple-dose trial, plasma pharmacokinetics
- Assay type: in vivo, human
- TEST_PARAMETERS: both sexes, human, plasma, po, 100 mg, 100 mg qd oral after breakfast, Day 15, read-out: t1/2 (converted)

COMPOUND	half-life, h
CC(C)=CCC[C@](C)(OC1O[C@H](CO)[C@@H](O)[C@H](O)[C@H]1O)[C@H]1CC[C@]2(C)[C@@H]1[C@H](O)C[C@@H]1[C@@]3(C)CC[C@H](O)C(C)(C)[C@@H]3CC[C@]12C (stereo partly shown) [CK]	34.6

====

- EXPERIMENTAL_DETAILS: Single-dose trial, plasma pharmacokinetics
- Format: in vivo, human
- TEST_PARAMETERS: both sexes, human, plasma; single-dose trial, 50 mg oral, fasting; read-out: t1/2 (converted)

COMPOUND	DISPLAY_UNIT	half-life
CC(C)=CCC[C@](C)(OC1O[C@H](CO)[C@@H](O)[C@H](O)[C@H]1O)[C@H]1CC[C@]2(C)[C@@H]1[C@H](O)C[C@@H]1[C@@]3(C)CC[C@H](O)C(C)(C)[C@@H]3CC[C@]12C (stereo partly shown) [CK]	h	15.9

====

- EXPERIMENTAL_DETAILS: Phase 0 cross-over trial, sex differences in pharmacokinetics
- Type: in vivo, human
- TEST_PARAMETERS: human, plasma, oral; phase 0 trial, Male (n = 12)

COMPOUND	half-life
CC(C)=CCC[C@](C)(OC1O[C@H](CO)[C@@H](O)[C@H](O)[C@H]1O)[C@H]1CC[C@]2(C)[C@@H]1[C@H](O)C[C@@H]1[C@@]3(C)CC[C@H](O)C(C)(C)[C@@H]3CC[C@]12C (stereo partly shown)	366 min

====

- EXPERIMENTAL_DETAILS: Multiple-dose trial, plasma pharmacokinetics
- Assay type: in vivo, human
- TEST_PARAMETERS: male, human, plasma, oral, Day 1, Male, read-out: Tmax, median (range)
PROPERTY_LABEL: Tmax (h)

COMPOUND	NUMERIC_VALUE
CC(C)=CCC[C@](C)(OC1O[C@H](CO)[C@@H](O)[C@H](O)[C@H]1O)[C@H]1CC[C@]2(C)[C@@H]1[C@H](O)C[C@@H]1[C@@]3(C)CC[C@H](O)C(C)(C)[C@@H]3CC[C@]12C (stereo partly shown) [CK]	3

====

- EXPERIMENTAL_DETAILS: Multiple-dose trial, plasma pharmacokinetics
- Assay type: in vivo, human
- TEST_PARAMETERS: both sexes, human, plasma, po, 400 mg, 400 mg qd oral after breakfast, Day 15
PROPERTY_LABEL: AUC(0-t) (ng·h/mL)

COMPOUND	NUMERIC_VALUE
CC(C)=CCC[C@](C)(OC1O[C@H](CO)[C@@H](O)[C@H](O)[C@H]1O)[C@H]1CC[C@]2(C)[C@@H]1[C@H](O)C[C@@H]1[C@@]3(C)CC[C@H](O)C(C)(C)[C@@H]3CC[C@]12C (stereo partly shown) [CK]	55200

====

- EXPERIMENTAL_DETAILS: Single-dose trial, plasma pharmacokinetics
- Format: in vivo, human
- TEST_PARAMETERS: both sexes, human, plasma; single-dose trial, 25 mg oral, fasting; read-out: t1/2 (converted)
PROPERTY_LABEL: half-life (h)

MOLECULE	NUMERIC_VALUE
CC(C)=CCC[C@](C)(OC1O[C@H](CO)[C@@H](O)[C@H](O)[C@H]1O)[C@H]1CC[C@]2(C)[C@@H]1[C@H](O)C[C@@H]1[C@@]3(C)CC[C@H](O)C(C)(C)[C@@H]3CC[C@]12C (stereo partly shown)	13.5

====

- EXPERIMENTAL_DETAILS: Multiple-dose trial, plasma pharmacokinetics
- Format: in vivo, human
- TEST_PARAMETERS: both sexes, human, plasma, 200 mg qd oral after breakfast, Day 15, read-out: AUCτ (zero to 24 h)

MOLECULE	DISPLAY_UNIT	AUC
CC(C)=CCC[C@](C)(OC1O[C@H](CO)[C@@H](O)[C@H](O)[C@H]1O)[C@H]1CC[C@]2(C)[C@@H]1[C@H](O)C[C@@H]1[C@@]3(C)CC[C@H](O)C(C)(C)[C@@H]3CC[C@]12C (stereo partly shown) [CK]	ng·h/mL	24700

====

- EXPERIMENTAL_DETAILS: Single-dose trial, plasma pharmacokinetics
- Assay type: in vivo, human
- TEST_PARAMETERS: both sexes, human, plasma; single-dose trial, 800 mg oral, fasting
PROPERTY_LABEL: MRT inf (h)

COMPOUND	PROPERTY_LABEL	NUMERIC_VALUE
CC(C)=CCC[C@](C)(OC1O[C@H](CO)[C@@H](O)[C@H](O)[C@H]1O)[C@H]1CC[C@]2(C)[C@@H]1[C@H](O)C[C@@H]1[C@@]3(C)CC[C@H](O)C(C)(C)[C@@H]3CC[C@]12C (stereo partly shown) [CK]	MRT inf	14.7

====

- EXPERIMENTAL_DETAILS: Multiple-dose trial, plasma pharmacokinetics
- Assay type: in vivo, human
- TEST_PARAMETERS: both sexes, human, plasma, 100 mg qd oral after breakfast, Day 15, read-out: AUCτ (zero to 24 h)

MOLECULE	AUC [µg·h/mL]
CC(C)=CCC[C@](C)(OC1O[C@H](CO)[C@@H](O)[C@H](O)[C@H]1O)[C@H]1CC[C@]2(C)[C@@H]1[C@H](O)C[C@@H]1[C@@]3(C)CC[C@H](O)C(C)(C)[C@@H]3CC[C@]12C (stereo partly shown)	8

====

- EXPERIMENTAL_DETAILS: Multiple-dose trial, plasma pharmacokinetics
- Assay type: in vivo, human
- TEST_PARAMETERS: both sexes, human, plasma, po, 400 mg, 400 mg qd oral after breakfast, Day 15
PROPERTY_LABEL: MRT inf

MOLECULE	RESULT
CC(C)=CCC[C@](C)(OC1O[C@H](CO)[C@@H](O)[C@H](O)[C@H]1O)[C@H]1CC[C@]2(C)[C@@H]1[C@H](O)C[C@@H]1[C@@]3(C)CC[C@H](O)C(C)(C)[C@@H]3CC[C@]12C (stereo partly shown)	17.9 h
